Exercise: state measured inhibition for each of the compounds provided.
# target: Dual specificity mitogen-activated protein kinase kinase 1 (Homo sapiens);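 also: reported value is a mean percent inhibition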
# conditionInfo: at 0.1 µM
Numbers only, in %.

The reported value for COc1ccc2cc(-c3c(-c4ccncc4)nc(-c4ccc([S+](C)[O-])cc4C)n3C)ccc2c1 (stereo not given) in terms of inhibition is -0.9

The value of inhibition measured for the compound "O=C(Nc1n[nH]c2nc(-c3ccco3)ccc12)C1CC1" turned out to be -0.04

compound "CN1CCN(CCCNc2nc3ccc(Oc4ccc(NC(=O)Nc5cc(C(F)(F)F)ccc5F)cc4)cc3[nH]2)CC1" , inhibition observed: 2.3

GET /value?item= "O=C(NCC1CC1)c1ccc(-c2cccc(C(=O)NC3CC3)c2)cc1" &field=inhibition returns 3.01

Provide each entry's inhibition from the list below.
1. Fc1ccc(-c2ncn(CCCN3CCOCC3)c2-c2ccncc2)cc1
2. COc1cc2ncn(-c3cc(OCCc4ccccc4)c(C(N)=O)s3)c2cc1OC
3. CN(C)c1ccc2c(c1)/C(=C/Nc1ccc(S(N)(=O)=O)cc1)C(=O)N2
4. NS(=O)(=O)c1ccc(N/N=C2\C(=O)Nc3ccc(C(=O)NCCCn4ccnc4)cc32)cc1
5. NS(=O)(=O)c1ccc(Nc2cc(-c3ccc(O)c(F)c3)n[nH]2)cc1
6. CCS(=O)(=O)c1ccc(OC)c(Nc2ncc(-c3ccccc3Cl)o2)c1

[reply]
1. -0.25
2. 3.24
3. 2.52
4. 10.7
5. -2.69
6. -0.28

Value sought for every listed compound: inhibition.
1. COc1ccc(C2=C(N3CCc4ccccc43)C(=O)NC2=O)cc1
2. O=C(Nc1ccc(Oc2ccc3[nH]c(NC(=O)c4ccccc4)nc3c2)cc1)Nc1cc(C(F)(F)F)ccc1F
3. Cc1ccc(NC(=O)c2ccoc2)cc1-c1ccc(C(=O)NCC2CC2)cc1

[reply]
1. 5.11
2. 2.91
3. 2.89

Can you give me inhibition for all of these, one by one?
1. c1ccc(Oc2ccc(Nc3ncc(-c4ccccc4)o3)cc2)cc1
2. O=C1Nc2ccc(I)cc2C1=Cc1cc(Br)c(O)c(Br)c1
3. NC(=O)c1ccc(Oc2nccc(-c3c(-c4ccc(F)cc4)ncn3C3CCNCC3)n2)cc1
4. COC(=O)Nc1nc2ccc(Sc3ccc(NC(=O)Nc4cc(C(F)(F)F)ccc4F)cc3)cc2[nH]1
5. O=C(Nc1n[nH]c2nc(-c3ccc(O)cc3)c(Br)cc12)C1CC1
6. NS(=O)(=O)c1ccc(N/N=C2\C(=O)Nc3ccc(-c4cnco4)cc32)cc1

[reply]
1: 0.88; 2: 3.38; 3: 4.51; 4: -0.42; 5: 7.68; 6: 2.18

Field inhibition (entry "O=C(Nc1n[nH]c2cc(-c3cc(F)ccc3F)ccc12)C1CC1" ) reads 4.62

---

Would you kindly list inhibition for each of these compounds?
# target: Ephrin type-A receptor 4 (Homo sapiens) (UniProt P54764)
# Sequence (P54764 whole entry): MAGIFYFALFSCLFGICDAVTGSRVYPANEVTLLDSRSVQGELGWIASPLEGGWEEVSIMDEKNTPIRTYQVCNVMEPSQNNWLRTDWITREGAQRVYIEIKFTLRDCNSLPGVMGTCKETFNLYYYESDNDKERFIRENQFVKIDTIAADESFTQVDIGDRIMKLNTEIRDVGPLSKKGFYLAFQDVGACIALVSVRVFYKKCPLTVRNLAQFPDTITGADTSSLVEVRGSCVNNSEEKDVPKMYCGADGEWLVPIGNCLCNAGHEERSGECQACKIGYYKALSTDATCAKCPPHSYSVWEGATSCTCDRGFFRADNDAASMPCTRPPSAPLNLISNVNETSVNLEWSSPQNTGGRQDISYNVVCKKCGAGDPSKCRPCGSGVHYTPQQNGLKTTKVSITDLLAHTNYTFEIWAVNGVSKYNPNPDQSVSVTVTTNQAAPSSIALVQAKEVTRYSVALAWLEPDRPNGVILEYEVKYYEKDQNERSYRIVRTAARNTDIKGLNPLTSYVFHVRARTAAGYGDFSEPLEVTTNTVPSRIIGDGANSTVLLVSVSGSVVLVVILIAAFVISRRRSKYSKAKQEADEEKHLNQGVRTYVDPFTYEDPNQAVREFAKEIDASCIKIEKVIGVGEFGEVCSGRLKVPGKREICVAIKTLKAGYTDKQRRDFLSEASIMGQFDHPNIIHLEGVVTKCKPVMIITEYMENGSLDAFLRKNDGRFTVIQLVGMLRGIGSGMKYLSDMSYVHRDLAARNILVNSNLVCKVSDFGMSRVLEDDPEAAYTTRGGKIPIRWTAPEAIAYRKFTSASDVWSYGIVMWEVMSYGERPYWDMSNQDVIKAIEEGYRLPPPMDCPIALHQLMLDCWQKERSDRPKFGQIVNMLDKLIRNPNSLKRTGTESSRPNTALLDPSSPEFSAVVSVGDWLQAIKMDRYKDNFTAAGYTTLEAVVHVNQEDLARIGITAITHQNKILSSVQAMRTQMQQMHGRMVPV
# conditionInfo: at 1 µM
# Description: GSK_PKIS: EPHA4 mean inhibition at 1 uM [Nanosyn]
One number for each entry, in %.

Query "COc1cc(Nc2ncc(-c3ccccc3)o2)cc(OC)c1OC" yields inhibition of 1.47

Record summary for "Fc1ccc(-c2ncn(CCCN3CCOCC3)c2-c2ccncc2)cc1" : reported inhibition = -5.4

Please fill in: inhibition reported for "COc1cc2ncn(-c3cc(OCc4cccs4)c(C(N)=O)s3)c2cc1OC" = 19.3

// sample "Fc1ccc(-c2c(-c3ccncc3)nc3n2CCS3)cc1" , its inhibition was 8.11

In plain terms, "Clc1ccc(CNc2nccc(-c3cnn4ncccc34)n2)cc1" has a documented inhibition of 13

Others:
The reported inhibition of the compound Nc1nccc(-c2c(-c3ccc(F)cc3)ncn2C2CCC(O)CC2)n1 (stereo unspecified) was 14.5
